# measured target: Mitogen-activated protein kinase 11 (Homo sapiens, UniProt Q15759); note: test concentration or dose not given here
# Sequence (Q15759 whole entry): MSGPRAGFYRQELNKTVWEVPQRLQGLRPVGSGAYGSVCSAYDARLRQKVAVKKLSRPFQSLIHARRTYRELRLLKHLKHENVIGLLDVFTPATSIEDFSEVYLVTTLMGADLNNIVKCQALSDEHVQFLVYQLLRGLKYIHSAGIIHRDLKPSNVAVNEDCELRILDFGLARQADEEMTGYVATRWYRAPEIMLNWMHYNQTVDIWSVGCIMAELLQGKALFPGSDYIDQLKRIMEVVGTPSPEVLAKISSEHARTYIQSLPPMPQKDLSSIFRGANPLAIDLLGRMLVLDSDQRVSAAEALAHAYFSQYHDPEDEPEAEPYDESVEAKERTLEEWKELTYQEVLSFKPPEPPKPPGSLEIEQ
Record form. Attribute: ΔTm. Fill in for each entry.
Enter your answer as a number in °C; do not include the unit.

QUERY: Quick one: ΔTm of `Nc1c(C(=O)Nc2ccc(C(=O)NC3CC3)s2)cnn1-c1ccccc1` ?
RESULT: 0.4

QUERY: Any idea what its ΔTm is? The molecule is `Cc1ccc(C(=O)NCCCC2CCCCC2)cc1NC(=O)c1ccc(-c2ccccc2Cl)s1`
RESULT: 2.8

QUERY: Consider the molecule `CC(C)CCCNC(=O)c1ccc(CNC(=O)c2cnn(-c3ccccc3)c2N)cc1` and give its measured ΔTm.
RESULT: 5.2

QUERY: Look up ΔTm: `Cc1ccc(-n2nc(C(C)(C)C)cc2NC(=O)c2ccc(C)c(NC(=O)c3ccc(-c4ccccc4Cl)s3)c2)cc1`
RESULT: 1.4

QUERY: I have this molecule here, `NC(=O)[C@H](CCC1CCCCC1)NC(=O)c1cnc(CNC(=O)c2cnn(-c3ccccc3)c2)s1` , and I need its recorded ΔTm.
RESULT: 10.6
